Tested on: MRC5
Test: Cytotoxicity against human MRC5 cells after 72 hrs by MTT assay
Format: cell-based
Conditions: MRC5, 72 h
recorded_endpoint: IC50 (µM)
Numeric only. Scale: µM

What IC50 value was documented for this compound, `O.O=C(N/N=C/c1cc(C[P+](c2ccccc2)(c2ccccc2)c2ccccc2)ccc1O)c1ccccc1.[Cl-]` ?
12.2

====

Test system: PC-3
Test: Cytotoxicity against human PC3 cells after 72 hrs by MTT assay
Format: functional, cell-based
Settings: PC-3, 72 h
recorded_endpoint: IC50

O=Cc1cc(C[P+](c2ccccc2)(c2ccccc2)c2ccccc2)ccc1O    > 30 µM

Could you now consider this next molecule?
Could you share which IC50 value was measured for `O.O=C(N/N=C/c1cc(C[P+](c2ccccc2)(c2ccccc2)c2ccccc2)ccc1O)c1ccccc1.[Cl-]` ?
14.4 µM
